Test system: OVCAR-5 ovarian
Assay: NCI tumour cell line growth inhibition, 48 h
Listing of entries alongside the reported TGI.
Measured quantity: TGI

• O=[N+]([O-])c1ccccc1N=Nc1c(O)[nH]c2cccc(C(F)(F)F)c12 = > 100 µM
• Cc1ccc2nc(SCC(=O)N=Nc3c(O)[nH]c4ccccc34)n(-c3ccccc3)c(=O)c2c1 = 29.3 µM
• CC1=C(C(=O)Nc2ccccc2C)C(c2ccc(Cl)cc2)C(C(=O)Nc2ccccc2C)=C(C)N1 = > 100 µM
• O=c1[nH]c(Nc2ccccc2)nc2c1ncn2CC(O)CSCCO (configuration not stated) = > 100 µM
• O=C(COc1ccccc1Cl)N1N=C(c2ccc(Cl)cc2)CC1(O)c1ccccc1 (configuration not stated) = > 100 µM
• O=C1OCC2=C1C(c1cccc(F)c1)c1cc3c(cc1N2CCO)OCO3 (configuration not stated) = > 50 µM
• COc1cc2c(c3c1c(=O)c1ccccc1n3C)C=CC1(CCCC1)O2 = 27 µM
• CN(C)c1cc2ccccc2oc1=O = > 100 µM
• N#CC(N)=Nc1ccccc1 = > 100 µM
• O=C(N/N=C/c1ccccc1O)N/N=C/c1ccccc1O = > 100 µM
• N#CCCN(CCC#N)c1ccc(/C=C2\N=C(c3ccccc3)N(c3ccc(F)cc3)C2=O)cc1 = > 100 µM
• Cn1c(=O)c(N=Nc2c(=O)n(C)c(=O)n3c2[nH]c2ccccc23)c2[nH]c3ccccc3n2c1=O = > 100 µM
• CC(C)(C)c1ccc(OCCOc2ccc(C(C)(C)C)cc2N)c(N)c1 = > 100 µM
• CCOC(=O)c1ccc(-n2[nH]nc(C(N)=O)c2=O)cc1 = > 100 µM
• N#C[Se]Cc1cc(-c2ccccc2)n(-c2ccc(S(N)(=O)=O)cc2)n1 = 3.97 µM
• CN1N=CSC12C(=O)N(c1ccccc1)C(=O)N2c1ccccc1 (configuration not stated) = > 100 µM
• CCSC1=NC2C(N(CC)C(=O)N2CC)N1/N=C/C=C/c1ccccc1[N+](=O)[O-] (configuration not stated) = > 100 µM

Reference source for all entries: PubChem BioAssay (NCI)
